test: In vitro metabolic stability in human liver microsomes (HLM); conditions: both, human, liver microsomes
readout.name: half-life at 5 μM (h)

The cases that follow already have their half-life at 5 μM on record.
compound: CCCNc1nc(N(C)OC)nc2c(NCCC)nc(NC)nc12.Cl [Compound 24a]
half-life at 5 μM (h): 1.98

compound: CCCNc1nc(N(C)C)nc2c(NCCC)nc(NC)nc12.Cl [Compound 29a]
half-life at 5 μM (h): 1.57

compound: CCCNc1nc(NC)c2nc(-c3ccc(F)cc3)nc(NC)c2n1 [Compound 112a]
half-life at 5 μM (h): 2.02

compound: CCCNc1nc(NC)c2nc(NCCC)nc(NC)c2n1.Cl [Compound 27a]
half-life at 5 μM (h): 2.12

compound: CCCNc1nc(NC)nc2c(NCCC)nc(NC)nc12.Cl [Compound 4a]
half-life at 5 μM (h): 6.85

[I] CCCNc1nc(NC(C)C)nc2c(NCCC)nc(NC(C)C)nc12.Cl [Compound 10a]
[II] CCCNc1nc(OC)nc2c(NCCC)nc(NC)nc12 [Compound 120a]
Lower value of half-life at 5 μM belongs to which: I or II ? API: response body contains the label of the selected item.
II

###

experiment: in vitro; conditions: male, rat, microsomes
readout.name: half-life at 5 μM (h)

The cases that follow already have their half-life at 5 μM on record.
compound: CCCNc1nc(N2CCC(OC)CC2)nc2c(NCCC)nc(NC)nc12 [Compound 47a]
unit.of.measure: h
measured.value: 1.77

compound: CCCNc1nc(NC(C)C)nc2c(NCCC)nc(NC(C)C)nc12.Cl [Compound 10a]
unit.of.measure: h
measured.value: 2.7

compound: CNc1nc(N(C)NC)nc2c(NC)nc(N(C)NC)nc12 [Compound 91]
unit.of.measure: h
measured.value: 0.4

compound: CCCNc1nc(NCc2ccc(Cl)c(Cl)c2)nc2c(NCCC)nc(NC)nc12 [Compound 51a]
unit.of.measure: h
measured.value: 1.2

compound: CCCNc1nc(N(CC)CC)nc2c(NCCC)nc(NC)nc12.Cl [Compound 31a]
unit.of.measure: h
measured.value: 1.8

[A] CCCNc1nc(N(C)OC)nc2c(NCCC)nc(Cl)nc12.Cl [Compound 17a]
[B] CNc1nc(NC)c2nc(NC)nc(NC)c2n1.Cl [Compound 79a]
[C] CCCNc1nc(OC)nc2c(NCCC)nc(NC)nc12 [Compound 120a]
[D] C#CCNc1nc(NC)nc2c(NCCC)nc(NC)nc12.Cl [Compound 13a]
Sort these compounds on half-life at 5 μM so the largest reading comes first. Would you mind listing the labels in the order requested?
B, D, C, A
(B: 6.47 h, D: 3.4 h, C: 1.37 h, A: 0.417 h)

###

experiment: In vitro metabolic stability in human liver microsomes (HLM); conditions: both, human, liver microsomes
Structures can show the parent of a compound that is named as a salt.
readout.name: half-life at 5 μM (min)

The cases that follow already have their half-life at 5 μM on record.
compound: CCCNc1nc(NCCOC)nc2c(NCCC)nc(NC)nc12 [Compound 35a]
unit.of.measure: min
half-life at 5 μM: 225
--
compound: CCCNc1nc(N2CCCCC2)nc2c(NCCC)nc(NC)nc12 [Compound 43a]
unit.of.measure: min
half-life at 5 μM: 98
--
compound: CCCNc1nc(N(C)OC)nc2c(NCCC)nc(N(C)OC)nc12 [Compound 19a, hydrochloride]
unit.of.measure: min
half-life at 5 μM: 110
--
compound: CCCNc1nc(NC)c2nc(Cl)nc(NC)c2n1 [Compound 54]
unit.of.measure: min
half-life at 5 μM: 82

[1] CCCNc1nc(NCC2CC2)nc2c(NCCC)nc(NCC3CC3)nc12 [Compound 140a]
[2] CCCCNc1nc(NC)c2nc(NCCCC)nc(NC)c2n1.Cl [Compound 83a]
[3] CCCNc1nc(N(C)OC)nc2c(NCCC)nc(Cl)nc12.Cl [Compound 17a]
[4] CCCNc1nc(NCc2ccc(Cl)c(Cl)c2)nc2c(NCCC)nc(NC)nc12 [Compound 51a]
Sort these compounds on half-life at 5 μM so the largest reading comes first. Would you mind listing the labels in the order requested?
2, 4, 1, 3
(2: 249 min, 4: 127 min, 1: 71 min, 3: 29 min)

###

assay: in vitro; conditions: male, rat, microsomes
readout.name: half-life at 5 μM (h)
A number alone suffices; assume h.

molecule: CCCNc1nc(N(C)C)nc2c(NCCC)nc(NC)nc12.Cl [Compound 29a]
half-life at 5 μM (h): 0.733

Now for a further molecule.
Give its half-life at 5 μM value. Item: CCCNc1nc(NC)c2nc(NCCC)nc(NC)c2n1.Cl [Compound 27a]
2.27

###

Property: half-life at 5 μM; scope: individual compounds
assay: In vitro metabolic stability in human liver microsomes (HLM); conditions: both, human, liver microsomes

The cases that follow already have their half-life at 5 μM on record.
compound: CCCNc1nc(NC2CC2)nc2c(NCCC)nc(NC3CC3)nc12
half-life at 5 μM: > 8.33 h
//
compound: CNc1nc(NC)c2nc(NC)nc(NC)c2n1.Cl [Compound 79a]
half-life at 5 μM: > 8.33 h

Give its half-life at 5 μM value. Item: CCCCNc1nc(NCCC)c2nc(NCCCC)nc(NCCC)c2n1.Cl
> 8.33 h
